Here, each record is paired with measured AMBEL herbicidal rating data.
tested on: AMBEL (Ragweed, Common); experiment: Postemergence herbicidal evaluation; type: in vivo, Ambrosia artemisifolia; conditions: postemergence, rate 0.0625 kg/ha
Would you mind answering with just the numeric figure?

                                   compound  quantitative_result
0  CC1SC(=Nc2cc(N3C(=O)C4=C(CCCC4)C3=O)c(F)cc2Cl)N(C)C1=O (stereo not shown)                  0.0
1  CC1SC(=Nc2cc(-n3c(=O)cc(C(F)(F)F)n(C)c3=O)c(F)cc2Cl)N(C)C1=O (stereo not shown)                  7.5
2  CCOC(=O)CN1C(=O)C(C)SC1=Nc1cc(-n2c(=O)cc(C(F)(F)F)n(C)c2=O)c(F)cc1Cl (stereo not shown)                  7.0
3  CCOC(=O)CN1C(=O)C(CC(=O)OC(C)C(=O)OCC)S/C1=N/c1cc(-n2c(=O)cc(C(F)(F)F)n(C)c2=O)c(F)cc1Cl (stereo not shown)                  7.0
4  C=CCN1C(=O)C(CC(N)=O)SC1=Nc1cc(-n2c(=O)cc(C(F)(F)F)n(C)c2=O)c(F)cc1Cl (stereo not shown)                  9.0

# AMBEL herbicidal rating lookup, item CCOC(=O)CN1C(=O)C(F)SC1=Nc1cc(-n2c(=O)cc(C(F)(F)F)n(C)c2=O)c(F)cc1Cl (stereo not shown)
9.0

# AMBEL herbicidal rating lookup, item COC(=O)CN1C(=O)CSC1=Nc1cc(-n2c(=O)cc(C(F)(F)F)n(C)c2=O)c(F)cc1Cl
6.0

* * *

system: TRZAWR (Wheat, Winter, cv Riband); experiment: Preemergence herbicidal evaluation; format: in vivo, Triticum aestivum; details: preemergence, 0.2500 kg/ha, rated 4-5 weeks after treatment, 0-9 scale
measured_attribute: TRZAWR rating
Would you mind answering with just the numeric figure?

# TRZAWR rating lookup, item CCOC(=O)CN1C(=O)C(CC(=O)OC(C)C(=O)OCC)S/C1=N/c1cc(-n2c(=O)cc(C(F)(F)F)n(C)c2=O)c(F)cc1Cl (centres unmarked)
0.0

# TRZAWR rating lookup, item COC(=O)CC1SC(=Nc2cc(-n3c(=O)cc(C(F)(F)F)n(C)c3=O)c(F)cc2Cl)N(C)C1=O (centres unmarked)
9.0

# TRZAWR rating lookup, item CN1C(=O)C(CC(=O)NS(C)(=O)=O)SC1=Nc1cc(-n2c(=O)cc(C(F)(F)F)n(C)c2=O)c(F)cc1Cl (centres unmarked)
1.0

# TRZAWR rating lookup, item CCOC(=O)CN1C(=O)C(CC(=O)NS(=O)(=O)CC)SC1=Nc1cc(-n2c(=O)cc(C(F)(F)F)n(C)c2=O)c(F)cc1Cl (centres unmarked)
0.0

# TRZAWR rating lookup, item COC(=O)C1(N2C(=O)CSC2=Nc2cc(-n3c(=O)cc(C(F)(F)F)n(C)c3=O)c(F)cc2Cl)CCCCC1
1.0

* * *

system: ORYSAT (Rice, Tebonnet); assay: Preemergence herbicidal evaluation; type: in vivo, Oryza sativa, (L.) Tebonnet; details: rate 0.0313 kg/ha; rated 4-5 weeks after treatment
Here, each record is paired with measured ORYSAT preemergence herbicidal rating data.
Would you mind answering with just the numeric figure?

Solved cases (3 shown):
>>> df
                                   molecule                     measured_attribute  quantitative_result
0  CN1C(=O)CSC1=Nc1cc(N2C(=O)C3=C(CCCC3)C2=O)c(F)cc1Cl  ORYSAT preemergence herbicidal rating                  0.0
1  CC1SC(=Nc2cc(-n3c(=O)cc(C(F)(F)F)n(C)c3=O)c(F)cc2Cl)N(C)C1=O (centres unmarked)  ORYSAT preemergence herbicidal rating                  8.5
2  CCOC(=O)CN1C(=O)C(CC)SC1=Nc1cc(-n2c(=O)cc(C(F)(F)F)n(C)c2=O)c(F)cc1Cl (centres unmarked)  ORYSAT preemergence herbicidal rating                  0.0

# ORYSAT preemergence herbicidal rating lookup, item O=C1CSC(=Nc2cc(N3C(=O)C4=C(CCCC4)C3=O)c(F)cc2Cl)N1c1ccccc1
0.0

# ORYSAT preemergence herbicidal rating lookup, item CCOC(=O)CN1C(=O)C(C)SC1=Nc1cc(-n2c(=O)cc(C(F)(F)F)n(C)c2=O)c(F)cc1Cl (centres unmarked)
1.0

* * *

tested on: CYPIR (Rice Flatsedge); assay: Preemergence weed control under flooded paddy conditions; type: in vivo, Cyperus iria; conditions: 0.0313 kg/ha, rated 3-4 weeks after treatment
Here, each record is paired with measured herbicidal effect rating, CYPIR data.
Would you mind answering with just the numeric figure?

Solved cases (3 shown):
In [3]: df
Out[3]:
                                   compound           tested_target               measured_attribute  quantitative_result
0  COC(=O)CSCCN1C(=O)CSC1=Nc1cc(-n2c(=O)cc(C(F)(F)F)n(C)c2=O)c(F)cc1Cl  CYPIR (Rice Flatsedge)  herbicidal effect rating, CYPIR                  9.0
1  Cn1c(C(F)(F)F)cc(=O)n(-c2cc(N=C3SCC(=O)N3CC(=O)OCC3CC3)c(Cl)cc2F)c1=O  CYPIR (Rice Flatsedge)  herbicidal effect rating, CYPIR                  0.0
2  C=CCN1C(=O)C(CC(=O)NO)SC1=Nc1cc(-n2c(=O)cc(C(F)(F)F)n(C)c2=O)c(F)cc1Cl (stereo not shown)  CYPIR (Rice Flatsedge)  herbicidal effect rating, CYPIR                  3.0

Please find the next compound below.
# herbicidal effect rating, CYPIR lookup, item COc1cccc(CN2C(=O)CSC2=Nc2cc(-n3c(=O)cc(C(F)(F)F)n(C)c3=O)c(F)cc2Cl)c1
3.0

* * *

tested on: AMBEL (Ragweed, Common); experiment: Preemergence herbicidal evaluation; assay type: in vivo, Ambrosia artemisifolia; conditions: rate 0.5000 kg/ha; rated 4-5 weeks after treatment
Here, each record is paired with measured Preemergence herbicidal rating AMBEL data.
Would you mind answering with just the numeric figure?

Solved cases (3 shown):
In [3]: df
Out[3]:
                                   molecule  quantitative_result
0  CCOC(=O)CN1C(=O)C(Cl)SC1=Nc1cc(-n2c(=O)cc(C(F)(F)F)n(C)c2=O)c(F)cc1Cl (stereo not shown)                  5.0
1  Cn1c(C(F)(F)F)cc(=O)n(-c2cc(N=C3SCC(=O)N3CC(=O)OCC3CC3)c(Cl)cc2F)c1=O                  9.0
2  C=CCN1C(=O)C(CC(=O)Nc2ccccc2)SC1=Nc1cc(-n2c(=O)cc(C(F)(F)F)n(C)c2=O)c(F)cc1Cl (stereo not shown)                  4.0

Please find the next molecule below.
# Preemergence herbicidal rating AMBEL lookup, item C=CCN1C(=O)C(CC(=O)OC(C)C)SC1=Nc1cc(-n2c(=O)cc(C(F)(F)F)n(C)c2=O)c(F)cc1Cl (stereo not shown)
9.0

* * *

Here, each record is paired with measured Preemergence herbicidal rating TRZAWR data.
system: TRZAWR (Wheat, Winter, cv Riband); assay: Preemergence herbicidal evaluation; format: in vivo, Triticum aestivum; conditions: rate 0.2500 kg/ha; rated 4-5 weeks after treatment
Would you mind answering with just the numeric figure?

Solved cases (4 shown):
In [3]: df
Out[3]:
                                   molecule  quantitative_result
0  Cn1c(C(F)(F)F)cc(=O)n(-c2cc(N=C3SCC(=O)N3CCC(=O)O)c(Cl)cc2F)c1=O [Compound 31]                  7.0
1  O=C(O)CC1SC(=Nc2cc(N3C(=O)C4=C(CCCC4)C3=O)c(F)cc2Cl)N(CC(=O)O)C1=O (stereo not shown) [Compound 48]                  2.0
2  C=CCN1C(=O)C(CC(=O)NS(=O)(=O)C(C)C)SC1=Nc1cc(-n2c(=O)cc(C(F)(F)F)n(C)c2=O)c(F)cc1Cl (stereo not shown) [Compound 118]                  0.0
3  CCOC(=O)CN1CCSC1=Nc1cc(-n2nc(C)n(C(F)F)c2=O)c(F)cc1Cl [Compound 36]                  0.0

# Preemergence herbicidal rating TRZAWR lookup, item CCOC(=O)[C@H](C)N1C(=O)CSC1=Nc1cc(-n2c(=O)cc(C(F)(F)F)n(C)c2=O)c(F)cc1Cl [Compound 76]
9.0

# Preemergence herbicidal rating TRZAWR lookup, item C=CCN1C(=O)C(CC(=O)Nc2ccccc2)SC1=Nc1cc(-n2c(=O)cc(C(F)(F)F)n(C)c2=O)c(F)cc1Cl (stereo not shown) [Compound 44]
0.0

# Preemergence herbicidal rating TRZAWR lookup, item C#CCOC(=O)CC1SC(=Nc2cc(-n3c(=O)cc(C(F)(F)F)n(C)c3=O)c(F)cc2Cl)N(CC(=O)OCC)C1=O (stereo not shown) [Compound 59]
2.0
